measuredTarget: T1, human TNFR2 on the surface of CHO-TNFR2 cells (human, UniProt P20333 23-461)
T1 construct: whole, on cells
T1 sequence (looked up): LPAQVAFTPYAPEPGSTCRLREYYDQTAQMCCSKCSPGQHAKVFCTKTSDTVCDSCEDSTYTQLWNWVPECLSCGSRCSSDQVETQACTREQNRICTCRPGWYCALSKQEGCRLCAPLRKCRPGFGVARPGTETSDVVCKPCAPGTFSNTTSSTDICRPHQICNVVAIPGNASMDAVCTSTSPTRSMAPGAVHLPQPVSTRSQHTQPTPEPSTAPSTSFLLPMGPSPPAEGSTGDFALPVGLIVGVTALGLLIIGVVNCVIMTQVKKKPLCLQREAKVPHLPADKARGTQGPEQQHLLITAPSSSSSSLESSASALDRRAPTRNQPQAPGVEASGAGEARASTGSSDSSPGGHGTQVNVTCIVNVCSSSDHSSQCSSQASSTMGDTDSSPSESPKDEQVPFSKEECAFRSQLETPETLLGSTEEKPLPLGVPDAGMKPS
procedureText: flow cytometry on CHO-TNFR2 cells; area under the MFI fold curve
metricName: AUC
One number for each entry.

• 219-Hu1 (antibody, V domains shown, also called VH3 + VL5) VH: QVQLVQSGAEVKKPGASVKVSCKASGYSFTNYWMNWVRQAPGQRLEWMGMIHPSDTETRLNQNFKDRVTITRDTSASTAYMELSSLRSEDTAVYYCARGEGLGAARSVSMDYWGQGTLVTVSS VL: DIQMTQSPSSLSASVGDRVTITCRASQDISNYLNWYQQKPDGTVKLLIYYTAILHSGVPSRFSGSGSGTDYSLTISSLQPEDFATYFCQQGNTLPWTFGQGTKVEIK = 565

Challenge: Which AUC value is on record for 001-Hu5 (antibody, V domains shown, Humanized form of #001; also called VH1 + VL4) VH: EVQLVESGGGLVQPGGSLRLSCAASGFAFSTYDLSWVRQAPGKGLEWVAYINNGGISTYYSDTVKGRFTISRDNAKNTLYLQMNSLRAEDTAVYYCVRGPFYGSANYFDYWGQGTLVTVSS VL: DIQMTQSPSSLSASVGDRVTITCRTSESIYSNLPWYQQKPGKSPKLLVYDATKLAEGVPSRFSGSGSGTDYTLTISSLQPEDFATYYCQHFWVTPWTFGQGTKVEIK ?
Response given: 431
